- procedure-details: Chromogenic reaction of degrading herbicides in bacteria: 2,4-D
- Type: cell-based, Escherichia coli
- assay-context: recombinant E. coli expressing the gene, 2,4-D added to the medium; red = phenols
- Procedure: To transform the plasmids to be tested, an AAD12-expressing plasmid and a blank control plasmid pET15b were respectively transformed into the protein expression E. coli BL21(DE3) strains. A monoclone was selected and inoculated in a 10 ml centrifuge tube with 3 ml LB medium, and cultivated at 37° C., 200 rpm for 6-8 hours. […]
assay-endpoint: Chromogenic reaction of degrading herbicides in bacteria: 2,4-D

molecule: QYD48: AAD-like enzyme, SEQ ID NO. 95 (protein, Synthetic polypeptide, QYD48, D48) MTDRLEIKPLDATFGAVVTGIRLAEIDEPTWRELHATWLKYALLVFPGQHLQRDQQIAFAKRFGPLEFEMAAISNVKSDGTLRIEEDNDDMMKILKGNMGWHADSTYMPVQAKGAVFSAEEVPTIGGQTGWADMRAAYDALDEARKAQIESLQAYHSLHYSQSQLGHQTGKSDGEYSGYGLHDGPVPLRPLVKTHPETGRKSLLIGRHAHNIPGMDRDEARRLLEGLIDFACQPPRIYHHDWAAGDAVVWDNRCLLHQATPWDMTQRRIMWHSRIAGDPASESALAA
recorded-value: Yes
